Molecular target: Cdk4/CyclinD1 (Homo sapiens (Human), UniProt P11802)
Sequence (P11802 whole entry): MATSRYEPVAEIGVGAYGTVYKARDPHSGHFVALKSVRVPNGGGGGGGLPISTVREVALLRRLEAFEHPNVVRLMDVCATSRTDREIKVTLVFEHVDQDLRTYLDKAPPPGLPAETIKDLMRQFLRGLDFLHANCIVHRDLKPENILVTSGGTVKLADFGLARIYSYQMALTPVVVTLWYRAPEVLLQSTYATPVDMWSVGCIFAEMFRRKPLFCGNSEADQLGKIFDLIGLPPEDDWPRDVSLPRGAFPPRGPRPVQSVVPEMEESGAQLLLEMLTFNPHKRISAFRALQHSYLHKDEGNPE
Sequence (P24385 whole entry partner): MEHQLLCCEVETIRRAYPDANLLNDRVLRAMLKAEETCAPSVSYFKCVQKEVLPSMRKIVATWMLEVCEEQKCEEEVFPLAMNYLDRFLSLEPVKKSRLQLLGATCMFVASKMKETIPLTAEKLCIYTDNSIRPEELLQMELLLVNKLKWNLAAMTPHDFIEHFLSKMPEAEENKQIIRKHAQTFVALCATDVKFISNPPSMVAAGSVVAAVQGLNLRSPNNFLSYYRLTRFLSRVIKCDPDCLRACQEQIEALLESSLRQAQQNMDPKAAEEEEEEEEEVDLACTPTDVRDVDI
Experiment: Cdk4 kinase inhibition assay with recombinant Cdk4/CyclinD1, Rb substrate, [33P]-ATP filter plate
Details: 25 μM ATP, read-out: Cdk 4 IC50
endpoint-label: IC50 (nM)

molecule: CC[C@H](C)n1c2cnccc2c2cnc(Nc3ccc(N4CCN[C@@H](C)C4)nn3)nc21 [Example 333]
value: 300
//
molecule: N[C@@H]1CCN(c2cnc(Nc3ncc4c5ccncc5n(C5CCCC5)c4n3)cn2)C1 [Example 90]
value: 5.6
//
molecule: C[C@@H](CO)NC1CCN(c2ccc(Nc3ncc4c5ccncc5n(C5CCCC5)c4n3)nn2)CC1 [Example 442]
value: 1.5
//
molecule: CN1CCN(c2cnc(Nc3ncc4c5ccncc5n(C5CCCC5)c4n3)cn2)CC1 [Example 78]
value: 15
//
molecule: CC[C@H](C)n1c2cnccc2c2cnc(Nc3ccc(N4CC[C@@H](O)C4)cn3)nc21 [Example 336]
value: 2
//
molecule: NC1CCN(c2ccc(Nc3ncc4c5ccncc5n(C5CCCC5)c4n3)nc2)CC1 [Example 11]
value: 3.1
//
molecule: COc1ccc(-n2c3cnccc3c3cnc(Nc4ccc(N5CCNCC5)cn4)nc32)cc1 [Example 16]
value: 10
//
molecule: COC(=O)CC1CCN(c2ccc(Nc3ncc4c5ccnc(F)c5n(C5CCCC5)c4n3)nc2)CC1 [Example 174]
value: 33
//
molecule: N#Cc1nccc2c3cnc(Nc4ccc(N5CCNCC5)cn4)nc3n(C3CCCC3)c12 [Example 188]
value: 27
//
molecule: O=C1CN(c2ccc(Nc3ncc4c5ccncc5n(C5CCCC5)c4n3)nn2)CCN1 [Example 115]
value: 2.3

(P) O=S1(=O)CCC(O)(c2ccc(Nc3ncc4c5ccncc5n(C5CCCC5)c4n3)nc2)CC1 [Example 263]
(Q) Oc1cc(-c2ccc(Nc3ncc4c5ccncc5n(C5CCCC5)c4n3)nn2)ccn1 [Example 264]
(R) CN(C)C1CCN(c2ccc(Nc3ncc4c5ccnc(F)c5n(C5CCCC5)c4n3)nn2)CC1 [Example 252]
(S) CN(C)C1CCN(c2ccc(Nc3ncc4c5ccccc5n(C5CCCC5)c4n3)nn2)CC1 [Example 300]
// query List by increasing IC50. Answer by listing the labels in the requested order.
// result R, Q, P, S
(R: 2 nM, Q: 9.3 nM, P: 14 nM, S: 22 nM)
